- test_description: Inhibition of dipeptidyl amino peptidase activity in rat brain with 10 nM [3H]Leu-enkephalin as substrate
- Assay type: tissue-based
Reported IC50 values are given for each entry in this list.
Just the number plus its unit, please.

Recorded IC50, per entry:
O=C(O)C[C@H](Cc1ccccc1)NC(=O)[C@@H](CC(=O)NO)Cc1ccccc1 (racemic) :: 0.46 nM
CC(CC(=O)O)NC(=O)C(CC(=O)NO)Cc1ccccc1 (stereo in doubt; C) :: 0.9 nM
O=C(O)C[C@H](Cc1ccccc1)NC(=O)[C@H](CC(=O)NO)Cc1ccccc1 :: 28.5 nM

Returns the measured IC50 for the input compound. Input: O=C(O)CNC(=O)C(CC(=O)NO)Cc1ccccc1 (stereo not given)
21 nM

Then O=C(CC(Cc1ccccc1)C(=O)NCC(Cc1ccccc1)C(=O)O)NO (stereo not given) ?
2.5 nM

Then CC(NC(=O)C(CC(=O)NO)Cc1ccccc1)C(C)C(=O)O (stereo in doubt; 11A) ?
10.5 nM

Then CC(CNC(=O)C(CC(=O)NO)Cc1ccccc1)C(=O)O (stereo not given) ?
23 nM

Then CC(CC(=O)O)NC(=O)C(CC(=O)NO)Cc1ccccc1 (stereo in doubt; 6) ?
10 nM

Then O=C(O)CCCNC(=O)C(CC(=O)NO)Cc1ccccc1 (stereo not given) ?
150 nM
